// reported % Inhibition @ 1 uM per item
# Tested on: AMPA-R
# experiment_description: [3H]AMPA radioligand binding assay on rat brain synaptic membranes
# details: Experiment #1, 1 uM
reported_endpoint: % Inhibition @ 1 uM (%)

# residue_sequence, reported_measurement
rows = [
    ("USASAMGCSASCSUMUMUSGS (antisense UAAGCACUUUG; cEt at 1, 2, 5, 6, 7, 10, 11, 2'-O-methyl at 3, 8, 9, other sugars and backbone not given here) [RG-NG-1005]", "−1.3"),
    ("ASCSAMAFUFGFCMASCS [RG5124, reference compound]", 12.9),
    ("ASGSCSASCSUSUSUS [RG-NG-1002]", "−2.0"),
    ("ASGSCMASCMUSUMUSGS [RG-NG-1003]", 13.9),
    ("ASGSCMAFCFUFUMUSGS [RGLS4326, reference compound]", 55.5),
    ("ASGSCSASCSUSUSUSGS [RG-NG-1001]", 76.2),
    ("ALGLCLALCLTLTLTLGL [RG-NG-1006]", 35.3),
    ("USASASGSCSASCSUSUSUSGS [RG-NG-1004]", 4.7),
]

---

// reported % Inhibition @ Concentration 100 uM per item
# Test system: AMPA-R
# experiment_description: [3H]AMPA radioligand binding assay on rat brain synaptic membranes;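 further: competition binding in which test compounds at rising concentrations displace [3H]AMPA from AMPA-R on rat brain synaptic membranes, with reduced bound radioligand as read-out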
# details: Table 8 (3′-terminal nucleobase/sugar variants), 100 uM
e = 2'-O-(2-methoxyethyl) (MOE); k = constrained ethyl (cEt); d = 2'-deoxy (DNA); m = 2'-O-methyl; f = 2'-fluoro

# residue_sequence, % Inhibition @ Concentration 100 uM (%)
records = [
    ("ASGSCMAFCFUFUMUSGS [RGLS4326, reference compound]", 99.7),
    ("ASGSCMAFCFUFUMUSAS [RG-NG-1015]", 5.6),
    ("ASGSCSASCSUSUSUSGS [RG-NG-1001]", 102.9),
    ("ASGSCMAFCFUFUMUSED [RG-NG-1039]", 30.2),
    ("ASGSCMAFCFUFUMUSNM [RG-NG-1036]", 78.1),
    ("GSCEAECETEGSTEADASGSCMAFCFUFUMUSGS (GCACTGTAAGCACUUUG; sugars from the 5' end keeeekedkkmfffmkk, backbone and methylation of C not given here) [RG-NG-1032]", 92),
    ("ASGSCMAFCFUFUMUSIM [RG-NG-1035]", 98.5),
    ("ASGSCMAFCFUFUMUSGD [RG-NG-1033]", 97.3),
    ("ASGSCMAFCFUFUMUSAM [RG-NG-1038]", 81.3),
]

---

# Test system: miR-17
# experiment_description: miR-17 PD-Sig in mouse kidney cell lines
# Assay type: cell-based
# details: D52B5, mouse, PKD
pEC50: −log10 of the molar value.
// reported pEC50 per item

# residue_sequence, pEC50
rows = [
    ("ASCSAMAFUFGFCMASCS [RG5124, reference compound]", 6.30),
    ("ASGSCMAFCFUFUMUSGS [RGLS4326, reference compound]", 7.03),
    ("ASGSCMAFCFUFUMUSAS [RG-NG-1015]", 7.08),
    ("ASGSCMAFCFUFUMUSUS [RG-NG-1017]", 7.13),
]
